Hello, the source for this data is patent US20220016218A1, in case you need it.

test: shake flask in triplicate (rotator; centrifuged); both phases by HPLC-MS/MS; mebendazole reference; conditions: PBS pH 7.4, mutually saturated, not stated C, DMSO stock (small aliquot)
Where a SMILES comes first, the peptide text is derived from it. [ ]: non-standard residue; d: D form. Arg(ω,ω'-(C6H13OCO)2) = CCCCCCOC(=O)N=C(NCCC[C@H](N)C(=O)O)NC(=O)OCCCCCC
PROPERTY_NAME: log D (1-octanol / PBS pH 7.4)

{"COMPOUND": "CCCCCCOC(=O)N=C(NCCC[C@@H]1NC(=O)[C@H](Cc2ccccc2)NC(=O)[C@@H]2CCCN2C(=O)[C@@H]2CCCN2C(=O)[C@H](CC(C)C)NC(=O)[C@H](C)NC(=O)[C@H](CC(C)C)NC(=O)[C@H](CC(=O)O)NC(=O)CNC1=O)NC(=O)OCCCCCC (cyclo(ALPPF[Arg(ω,ω'-(C6H13OCO)2)]GDL))", "PROPERTY_NAME": "log D (1-octanol / PBS pH 7.4)", "MEASURED_RESULT": ">4.5 log units"}
{"COMPOUND": "CC(C)[C@H]1C(=O)N[C@@H](CCCNC(=N)N)C(=O)NCC(=O)N[C@@H](CC(=O)O)C(=O)N[C@H](Cc2ccccc2)C(=O)N1C", "PROPERTY_NAME": "log D (1-octanol / PBS pH 7.4)", "MEASURED_RESULT": "<−1 log units"}
{"COMPOUND": "CC(C)[C@@H]1C(=O)N[C@@H](CCCNC(=N)N)C(=O)NCC(=O)N[C@@H](CC(=O)O)C(=O)N[C@@H](C)C(=O)N(C)[C@@H](C)C(=O)N1C", "PROPERTY_NAME": "log D (1-octanol / PBS pH 7.4)", "MEASURED_RESULT": "<−1 log units"}
